- Tested on: Ataxin-2 (Homo sapiens) (UniProt Q99700)
- Sequence (Q99700 whole entry): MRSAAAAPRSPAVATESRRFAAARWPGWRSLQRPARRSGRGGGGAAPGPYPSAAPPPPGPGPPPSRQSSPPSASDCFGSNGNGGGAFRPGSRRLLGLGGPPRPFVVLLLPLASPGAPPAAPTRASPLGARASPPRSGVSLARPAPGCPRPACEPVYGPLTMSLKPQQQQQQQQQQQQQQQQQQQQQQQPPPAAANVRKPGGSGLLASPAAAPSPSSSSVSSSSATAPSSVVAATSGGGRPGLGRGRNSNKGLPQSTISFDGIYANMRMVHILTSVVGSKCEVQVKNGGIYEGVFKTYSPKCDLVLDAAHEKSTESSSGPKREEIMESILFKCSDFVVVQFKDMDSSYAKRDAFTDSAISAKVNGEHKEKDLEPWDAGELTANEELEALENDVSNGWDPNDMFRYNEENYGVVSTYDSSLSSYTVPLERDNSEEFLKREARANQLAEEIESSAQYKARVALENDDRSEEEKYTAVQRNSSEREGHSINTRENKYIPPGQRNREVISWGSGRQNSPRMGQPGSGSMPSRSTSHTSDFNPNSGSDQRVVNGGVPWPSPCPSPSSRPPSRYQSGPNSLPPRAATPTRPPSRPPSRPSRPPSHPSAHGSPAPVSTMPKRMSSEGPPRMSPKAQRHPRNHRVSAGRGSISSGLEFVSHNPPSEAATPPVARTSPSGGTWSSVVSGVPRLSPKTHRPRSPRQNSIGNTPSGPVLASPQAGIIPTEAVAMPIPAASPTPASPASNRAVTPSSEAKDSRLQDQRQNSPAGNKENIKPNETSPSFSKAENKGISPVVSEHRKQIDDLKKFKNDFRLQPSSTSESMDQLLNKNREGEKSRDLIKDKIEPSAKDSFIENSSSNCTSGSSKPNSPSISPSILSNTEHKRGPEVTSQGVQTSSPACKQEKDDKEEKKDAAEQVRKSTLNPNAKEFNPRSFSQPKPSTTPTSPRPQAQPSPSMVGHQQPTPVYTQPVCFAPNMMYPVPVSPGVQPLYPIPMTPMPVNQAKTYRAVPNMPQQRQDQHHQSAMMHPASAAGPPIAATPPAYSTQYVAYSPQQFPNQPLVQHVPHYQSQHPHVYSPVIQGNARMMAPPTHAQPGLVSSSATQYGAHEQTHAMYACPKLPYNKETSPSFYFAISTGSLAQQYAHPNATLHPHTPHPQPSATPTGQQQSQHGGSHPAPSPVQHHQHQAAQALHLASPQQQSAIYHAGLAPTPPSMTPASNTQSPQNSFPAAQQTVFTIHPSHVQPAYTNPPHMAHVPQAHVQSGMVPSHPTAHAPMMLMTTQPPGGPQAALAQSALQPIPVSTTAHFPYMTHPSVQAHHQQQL
- Protocol notes: qHTS for Inhibitors of ATXN expression.
- Assay type: functional
The campaign covered roughly 400,000 compounds. About 2,100 (0.53%) were called active. About 14% were inconclusive and are not listed. How the calls were made is not given here. The sample holds actives, similar compounds and a random draw of the others, so the mix is not that of the screen.
Can you answer with just one of these options? active, inactive

Examples from the recorded data:
* COc1ccccc1Cc1c(-c2cccc(Cl)c2)nc2ccc(C)cn12 | active
* CCCCNc1c(-c2ccc(OC)c(SC3CCCCC3)c2)nc2cnccn12 | inactive
* O=C1CCC([N+](=O)[O-])C(c2ccc3c(c2)OCO3)N1 (configuration not stated) | inactive

## Input Returns: the outcome recorded for Cc1cc(C)c(C#N)c(SCc2ccc(F)cc2)n1 in this assay.
## Output inactive

## Input Returns: the outcome recorded for COc1ccc(-c2cc(-c3ccc(N)cc3)nc(N)c2C#N)cc1OC in this assay.
## Output inactive

## Input Returns: the outcome recorded for O=C(O)C1Sc2nc(O)sc2C2c3ccc(O)cc3OC(=O)C12 (configuration not stated) in this assay.
## Output inactive

## Input Returns: the outcome recorded for CCCCCn1c(=O)[nH]c2cc(C(=O)NCCCN3CCCCC3C)ccc2c1=O (configuration not stated) in this assay.
## Output inactive

## Input Returns: the outcome recorded for CC1CCCCN1CCCNC(=O)c1[nH]c2ccccc2c1Sc1ccc(Cl)cc1 (configuration not stated) in this assay.
## Output active

## Input Returns: the outcome recorded for COc1cnc(-c2ccccc2)nc1Oc1ccc(Cl)cc1C in this assay.
## Output inactive

## Input Returns: the outcome recorded for C/C(=N\Nc1ncc(Cl)cc1Cl)c1ccccn1 in this assay.
## Output inactive

## Input Returns: the outcome recorded for COc1ccc(CCN(C(=O)/C=C/C(=O)O)C2CC(=O)N(c3ccccc3)C2=O)cc1 (configuration not stated) in this assay.
## Output inactive

## Input Returns: the outcome recorded for COc1ccc(N2C(=O)CC(N3CCN(c4ccccc4)CC3)C2=O)cc1 (configuration not stated) in this assay.
## Output inactive

## Input Returns: the outcome recorded for COc1ccc(-c2nc3ccc(Cl)cn3c2Cc2cccc(F)c2)cc1OC in this assay.
## Output active
